# key: entry, value: pKi
Sequence of the target: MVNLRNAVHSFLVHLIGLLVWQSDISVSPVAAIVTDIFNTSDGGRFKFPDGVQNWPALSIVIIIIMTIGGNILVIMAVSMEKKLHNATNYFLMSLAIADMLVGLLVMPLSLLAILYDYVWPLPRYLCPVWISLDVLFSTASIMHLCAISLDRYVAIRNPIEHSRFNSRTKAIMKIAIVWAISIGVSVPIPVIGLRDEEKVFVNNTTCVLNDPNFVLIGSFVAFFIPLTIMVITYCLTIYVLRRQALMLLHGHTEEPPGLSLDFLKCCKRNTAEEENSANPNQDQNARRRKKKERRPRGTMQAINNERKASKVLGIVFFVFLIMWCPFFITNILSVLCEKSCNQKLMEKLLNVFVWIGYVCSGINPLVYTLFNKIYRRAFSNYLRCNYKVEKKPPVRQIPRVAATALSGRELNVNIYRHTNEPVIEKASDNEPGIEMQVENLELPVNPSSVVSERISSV
pKi: −log10 of the molar value.
ENDPOINT_LABEL: pKi

INSERT INTO assay_data (sample_smiles, qualifier_sign, test_result) VALUES
  ('O=S(=O)(c1ccc(F)cc1)N1CCC(F)(CCc2ccc(F)cc2F)CC1', '=', 6.09),
  ('O=S(=O)(c1cccc2cccnc12)N1CCC(CCc2ccc(F)cc2F)CC1', '=', 6.74),
  ('O=C(c1cccc2cccnc12)N1CCC(CCc2ccc(F)cc2F)CC1', '=', 7.55),
  ('N#Cc1ccccc1S(=O)(=O)N1CCC(CCc2ccc(F)cc2F)CC1', '=', 7.15),
  ('O=C(c1ccccc1F)N1CCC(CCc2ccc(F)cc2F)CC1', '=', 6.96),
  ('O=S(=O)(c1ccc(F)cc1)N1CCC(O)(CCc2ccc(F)cc2F)CC1', '<', 5.40),
  ('O=S(=O)(c1ccc(F)cc1)N1CCC(CCc2ccc(F)cc2F)CC1', '=', 5.69);

---

# TARGET_DESC: UniProt:Q12809
# Sequence (Q12809 whole entry): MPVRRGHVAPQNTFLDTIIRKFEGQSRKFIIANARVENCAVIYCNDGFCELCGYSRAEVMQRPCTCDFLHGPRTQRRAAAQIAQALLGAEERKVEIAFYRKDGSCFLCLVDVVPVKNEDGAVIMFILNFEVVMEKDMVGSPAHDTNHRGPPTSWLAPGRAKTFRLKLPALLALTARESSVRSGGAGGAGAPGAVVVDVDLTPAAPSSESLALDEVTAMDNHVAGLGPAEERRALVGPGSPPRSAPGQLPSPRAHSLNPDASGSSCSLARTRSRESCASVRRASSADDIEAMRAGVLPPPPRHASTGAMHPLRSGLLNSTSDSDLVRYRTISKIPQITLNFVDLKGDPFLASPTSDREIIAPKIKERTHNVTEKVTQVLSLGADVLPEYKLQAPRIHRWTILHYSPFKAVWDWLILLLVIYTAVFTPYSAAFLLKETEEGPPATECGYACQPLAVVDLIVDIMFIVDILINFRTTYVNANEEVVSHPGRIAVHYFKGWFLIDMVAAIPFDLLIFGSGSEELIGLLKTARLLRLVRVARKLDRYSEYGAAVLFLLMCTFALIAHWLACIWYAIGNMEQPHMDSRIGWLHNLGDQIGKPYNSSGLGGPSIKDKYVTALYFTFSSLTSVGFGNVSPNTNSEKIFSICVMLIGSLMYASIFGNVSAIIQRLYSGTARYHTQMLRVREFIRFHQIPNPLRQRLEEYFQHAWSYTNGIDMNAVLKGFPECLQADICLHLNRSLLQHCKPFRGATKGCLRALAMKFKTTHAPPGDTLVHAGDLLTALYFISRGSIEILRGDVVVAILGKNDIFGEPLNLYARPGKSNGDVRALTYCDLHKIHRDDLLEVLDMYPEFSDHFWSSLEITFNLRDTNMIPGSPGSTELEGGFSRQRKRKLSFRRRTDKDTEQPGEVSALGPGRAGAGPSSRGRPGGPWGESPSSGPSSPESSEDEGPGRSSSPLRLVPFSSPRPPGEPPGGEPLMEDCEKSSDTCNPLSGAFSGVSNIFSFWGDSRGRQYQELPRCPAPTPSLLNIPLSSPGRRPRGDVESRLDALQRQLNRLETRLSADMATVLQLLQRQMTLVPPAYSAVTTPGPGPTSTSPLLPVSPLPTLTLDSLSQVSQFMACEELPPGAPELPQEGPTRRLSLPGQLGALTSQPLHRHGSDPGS
ENDPOINT_LABEL: Ki

INSERT INTO results (sample_smiles, endpoint_label, test_result) VALUES
  ('O=S(=O)(c1cccc2cccnc12)N1CCC(CCc2ccc(F)cc2F)CC1', 'Ki', '> 9 µM'),
  ('O=S(=O)(c1ccc(F)cc1)N1CCC(F)(CCc2ccc(F)cc2F)CC1', 'Ki', '> 9 µM'),
  ('O=S(=O)(c1ccccc1Cl)N1CCC(CCc2ccc(F)cc2F)CC1', 'Ki', '> 9 µM');

---

# TARGET_DESC: UniProt P14416
# Sequence (P14416 whole entry): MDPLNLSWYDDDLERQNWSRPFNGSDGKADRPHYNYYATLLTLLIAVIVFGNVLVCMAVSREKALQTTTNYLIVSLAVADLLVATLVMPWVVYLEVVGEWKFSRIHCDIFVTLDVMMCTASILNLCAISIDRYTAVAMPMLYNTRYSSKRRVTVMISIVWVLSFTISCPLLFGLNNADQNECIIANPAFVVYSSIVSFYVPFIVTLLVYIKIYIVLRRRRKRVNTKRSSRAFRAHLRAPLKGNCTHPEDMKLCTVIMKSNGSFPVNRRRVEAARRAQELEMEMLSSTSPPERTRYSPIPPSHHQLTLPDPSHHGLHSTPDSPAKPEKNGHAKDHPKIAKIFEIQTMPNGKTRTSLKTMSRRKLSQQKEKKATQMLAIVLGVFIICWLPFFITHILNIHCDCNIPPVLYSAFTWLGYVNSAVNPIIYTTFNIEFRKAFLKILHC
# TEST: Binding affinity to human D2 receptor
ENDPOINT_LABEL: Ki

INSERT INTO assay_data (sample_smiles, target_desc, test_result) VALUES
  ('O=C(c1cccc2cccnc12)N1CCC(CCc2ccc(F)cc2F)CC1', 'UniProt P14416', '> 1 µM'),
  ('O=S(=O)(c1cccc2cccnc12)N1CCC(CCc2ccc(F)cc2F)CC1', 'UniProt P14416', '> 1 µM'),
  ('O=C(c1ccccc1F)N1CCC(CCc2ccc(F)cc2F)CC1', 'UniProt P14416', '> 1 µM');

---

# TARGET_DESC: 5-hydroxytryptamine receptor 2A (Homo sapiens, UniProt P28223)
# Sequence (P28223 whole entry): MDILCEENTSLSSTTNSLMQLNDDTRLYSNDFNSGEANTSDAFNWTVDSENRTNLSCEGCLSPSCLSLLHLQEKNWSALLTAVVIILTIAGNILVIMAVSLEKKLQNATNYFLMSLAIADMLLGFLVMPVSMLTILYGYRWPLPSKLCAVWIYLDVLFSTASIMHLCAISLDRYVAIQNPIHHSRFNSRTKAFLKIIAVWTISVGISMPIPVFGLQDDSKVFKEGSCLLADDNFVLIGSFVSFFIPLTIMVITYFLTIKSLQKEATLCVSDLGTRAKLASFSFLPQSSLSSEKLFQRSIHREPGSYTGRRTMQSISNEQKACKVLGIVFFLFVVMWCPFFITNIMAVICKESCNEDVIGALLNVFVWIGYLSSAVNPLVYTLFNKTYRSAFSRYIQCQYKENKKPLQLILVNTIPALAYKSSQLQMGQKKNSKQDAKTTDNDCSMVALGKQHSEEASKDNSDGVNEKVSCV
# key: entry, value: Ki
ENDPOINT_LABEL: Ki (nM)

INSERT INTO results (sample_smiles, endpoint_label, test_result) VALUES
  ('O=S(=O)(c1cccc(F)c1)N1CCC(CCc2ccc(F)cc2F)CC1', 'Ki', 14),
  ('O=S(=O)(c1ccc(F)cc1)N1CCC(CCc2ccc(F)cc2F)CC1', 'Ki', 52),
  ('N#Cc1c[nH]c2c(C(=O)N3CCN(CCc4ccc(F)cc4F)CC3)cccc12', 'Ki', 0.87),
  ('O=S(=O)(c1ccc(F)cc1)N1CCC(F)(CCc2ccc(F)cc2F)CC1', 'Ki', 24);
